Test: In-vivo absorbency (plasma concentrations & pharmacokinetic parameters)
Parameters: species or system SD rat (male)
Settings: plasma; SD male rat, iv 20 mg/kg; two compartment model
Class True: AUC at least 40000 ng·h/mL. Class False: AUC below 40000 ng·h/mL.

In plain terms: is recorded AUC at least 40000 ng·h/mL for CC(O/N=C(\C(=O)NC1C(=O)N2C(C(=O)[O-])=C(CSc3nc(N)cc(N)[n+]3C)CSC12)c1csc(N)n1)C(=O)O (centres unmarked) [Compound I-4] ?
False

Can CC(C)(O/N=C(\C(=O)NC1C(=O)N2C(C(=O)[O-])=C(CSc3nc(N)cc(N)[n+]3N)CS[C@H]12)c1csc(N)n1)C(=O)O (some centres unmarked) [Compound I-15] be said to have AUC at or above 40000 ng·h/mL?
True

Given C[n+]1c(N)cc(N)nc1SCC1=C(C(=O)[O-])N2C(=O)C(NC(=O)/C(=N\OCC(=O)O)c3csc(N)n3)C2SC1 (centres unmarked) [Compound I-7] , state whether its AUC is at least 40000 ng·h/mL.
False

Reported AUC at or above 40000 ng·h/mL? CCc1c(N)nc(SCC2=C(C(=O)[O-])N3C(=O)C(NC(=O)/C(=N\OC(C)(C)C(=O)O)c4csc(N)n4)C3SC2)[n+](CC)c1N (centres unmarked) [Compound I-33]
False

---

Test system: Serratia marcescens ATCC 27117
Assay: Antibacterial activity, MIC
Assay type: cell-based
Details: ATCC27117, ATCC 27117, agar two-fold dilution, 37° C., 20 hours, read-out: MIC
PROPERTY NAME: MIC (µg/mL)
State just the number; it will be interpreted in µg/mL.

Return value of MIC for input CCO/N=C(\C(=O)NC1C(=O)N2C(C(=O)[O-])=C(CSc3nc(N)cc(N)[n+]3CC)CSC12)c1csc(N)n1 (stereo not drawn) , no commentary.
0.13

Provide one value: measured MIC of C[n+]1c(N)cc(N)nc1SCC1=C(C(=O)[O-])N2C(=O)C(NC(=O)/C(=N\OC(C)(C)C(=O)O)c3nsc(N)n3)C2SC1 (stereo not drawn)
0.25

Indicate the recorded MIC value for this molecule: Cc1c(N)nc(SCC2=C(C(=O)[O-])N3C(=O)C(NC(=O)/C(=N\OC(C)(C)C(=O)O)c4csc(N)n4)C3SC2)[n+](N)c1N (stereo not drawn)
0.13

Please indicate MIC recorded for C=CC[n+]1c(N)cc(N)nc1SCC1=C(C(=O)[O-])N2C(=O)C(NC(=O)/C(=N\OC(C)C(=O)O)c3csc(N)n3)C2SC1 (stereo not drawn)
0.13

Let me know recorded MIC for CCO/N=C(\C(=O)NC1C(=O)N2C(C(=O)[O-])=C(CSc3nc(N)cc(N)[n+]3C)CSC12)c1nsc(N)n1 (stereo not drawn) , thanks.
0.25

Fill in MIC for record CC(C)(O/N=C(\C(=O)NC1C(=O)N2C(C(=O)[O-])=C(CSc3nc(N)cc(N)[n+]3N)CSC12)c1nsc(N)n1)C(=O)O (stereo not drawn)
0.25

Please report MIC for the following molecule: CC(C)(O/N=C(\C(=O)NC1C(=O)N2C(C(=O)[O-])=C(CSc3nc(N)cc(N)[n+]3-c3ccc(O)cc3)CSC12)c1csc(N)n1)C(=O)O (stereo not drawn)
0.5

State its MIC: CO/N=C(\C(=O)NC1C(=O)N2C(C(=O)[O-])=C(CSc3nc(N)cc(N)[n+]3C)CSC12)c1nsc(N)n1 (stereo not drawn)
0.25

Find the measured MIC of CO/N=C(\C(=O)NC1C(=O)N2C(C(=O)[O-])=C(CSc3nc(N)cc(N)[n+]3C)CSC12)c1csc(N)n1 (stereo not drawn) and report it.
0.063

Hello, please tell me recorded MIC for this one: CC(C)(O/N=C(\C(=O)NC1C(=O)N2C(C(=O)[O-])=C(CSc3nc(N)cc(N)[n+]3C3CC3)CSC12)c1csc(N)n1)C(=O)O (stereo not drawn)
0.25

For the molecule C=CC[n+]1c(N)cc(N)nc1SCC1=C(C(=O)[O-])N2C(=O)C(NC(=O)/C(=N\OC(C)(C)C(=O)O)c3csc(N)n3)C2SC1 (stereo not drawn) , give its reported MIC.
0.13

Look up MIC of CC(C)(O/N=C(\C(=O)NC1C(=O)N2C(C(=O)[O-])=C(CSc3nc(N)cc(N)[n+]3-c3ccccc3)CSC12)c1csc(N)n1)C(=O)O (stereo not drawn) and report it.
0.5

Source of measurements: patent US5202315A
